These data points were gathered from paper PMC9495972.

EXPERIMENTAL TARGET: human recombinant AKR1B1 (Homo sapiens)
Construct: made in house
PROTOCOL DETAILS: AKR1B1 activity inhibition, decrease in absorbance at 340 nm linked to NADPH oxidation
Type: biochemical
ASSAY CONTEXT: IC50 for the reduction of L-idose, 8 mM L-idose as substrate, 10 mU AKR1B1, 37 °C, pH 6.8; 95% CLs in text
REPORTED PROPERTY: IC50
Answer by giving the amount and then stating its unit.

Entry O=C(O[C@@H]1Cc2c(O)cc(O)cc2O[C@@H]1c1ccc(O)c(O)c1)c1cc(O)c(O)c(O)c1 [ECG, epicatechin gallate] : reported IC50 = ?
67 µM
